# Tested on: spontaneously hypertensive rats (SHR)
# Method: Caudal artery systolic pressure of spontaneously hypertensive rats, single administration
# Type: in vivo, rat
# Condition Label: 60 mg/kg intragastric single administration, 90 min, x ± s, n = 8
Measurement Type: Systolic pressure (mmHg)
Just the number please, in mmHg, no unit attached.

Data request: Requested read-out Systolic pressure, target or system spontaneously hypertensive rats (SHR), entry CC1C(=O)OC2C(O)C34C5CC(C(C)(C)C)C36C(OC(=O)C6O)OC4(C(=O)O5)C12O (stereo not drawn) [GB, ginkgolide B]
Data returned: 155.16

Data request: Requested read-out Systolic pressure, target or system spontaneously hypertensive rats (SHR), entry Cc1nc(C)c(C(=O)O[C@H]2C(=O)O[C@H]3O[C@]45C(=O)OC6C[C@@H](C(C)(C)C)C32[C@@]64[C@@H](O)[C@@H]2OC(=O)[C@@H](C)[C@@]25O)nc1C (stereo partly drawn)
Data returned: 151.14

Data request: Requested read-out Systolic pressure, target or system spontaneously hypertensive rats (SHR), entry Cc1nc(C)c(CO[C@H]2C(=O)O[C@H]3O[C@]45C(=O)OC6C[C@@H](C(C)(C)C)C32[C@@]64[C@@H](O)[C@@H]2OC(=O)[C@@H](C)[C@@]25O)nc1C (stereo partly drawn)
Data returned: 151.74

Data request: Requested read-out Systolic pressure, target or system spontaneously hypertensive rats (SHR), entry C[C@@H]1C(=O)O[C@H]2[C@H](O)[C@@]34C5C[C@@H](C(C)(C)C)C36[C@@H](OC(=O)[C@@H]6OC(=O)[C@H](c3ccccc3Cl)N3CCc6sccc6C3)O[C@@]4(C(=O)O5)[C@@]12O (stereo partly drawn)
Data returned: 152.74

Data request: Requested read-out Systolic pressure, target or system spontaneously hypertensive rats (SHR), entry CCCCC(OC(C)=O)c1ccccc1C(=O)O[C@H]1C(=O)O[C@H]2O[C@]34C(=O)OC5C[C@@H](C(C)(C)C)C21[C@@]53[C@@H](O)[C@@H]1OC(=O)[C@@H](C)[C@@]14O (stereo partly drawn)
Data returned: 151.60

Data request: Requested read-out Systolic pressure, target or system spontaneously hypertensive rats (SHR), entry CC(=O)Oc1ccccc1C(=O)O[C@H]1C(=O)O[C@H]2O[C@]34C(=O)OC5C[C@@H](C(C)(C)C)C21[C@@]53[C@@H](O)[C@@H]1OC(=O)[C@@H](C)[C@@]14O (stereo partly drawn)
Data returned: 152.56

====

# Method: Weekly food intake of SHR rats
# Assay type: in vivo, rat
# Condition Label: 120 mg/kg/d intragastric, week 8
# Method: 2.1 Grouping and administration of animals: 112 SHR rats (the female and male SHR rats are half and half, and the female rats are not pregnant) with the body weight of 200-250 g are taken, the rats are enabled to adapt to a laboratory for a period of 5 d, blood pressure is measured once at a day to enable the rats to adapt to the environment and detect stimulation. […]
Marks after values point to notes of the source that are not given here.
Measurement Type: Average dairy food intake

Data request: Requested field: Average dairy food intake. Item: Cc1nc(C)c(C(=O)O[C@H]2C(=O)O[C@H]3O[C@]45C(=O)OC6C[C@@H](C(C)(C)C)C32[C@@]64[C@@H](O)[C@@H]2OC(=O)[C@@H](C)[C@@]25O)nc1C (stereo partly drawn)
Data returned: 27.0^▴▴ g/d

Data request: Requested field: Average dairy food intake. Item: C[C@@H]1C(=O)O[C@H]2[C@H](O)[C@@]34C5C[C@@H](C(C)(C)C)C36[C@@H](OC(=O)[C@@H]6OC(=O)[C@H](c3ccccc3Cl)N3CCc6sccc6C3)O[C@@]4(C(=O)O5)[C@@]12O (stereo partly drawn)
Data returned: 26.7^▴▴ g/d

Data request: Requested field: Average dairy food intake. Item: Cc1nc(C)c(CO[C@H]2C(=O)O[C@H]3O[C@]45C(=O)OC6C[C@@H](C(C)(C)C)C32[C@@]64[C@@H](O)[C@@H]2OC(=O)[C@@H](C)[C@@]25O)nc1C (stereo partly drawn)
Data returned: 27.6^▴▴ g/d

Data request: Requested field: Average dairy food intake. Item: CCCCC(OC(C)=O)c1ccccc1C(=O)O[C@H]1C(=O)O[C@H]2O[C@]34C(=O)OC5C[C@@H](C(C)(C)C)C21[C@@]53[C@@H](O)[C@@H]1OC(=O)[C@@H](C)[C@@]14O (stereo partly drawn)
Data returned: 26.9^▴▴ g/d

Data request: Requested field: Average dairy food intake. Item: CC(=O)Oc1ccccc1C(=O)O[C@H]1C(=O)O[C@H]2O[C@]34C(=O)OC5C[C@@H](C(C)(C)C)C21[C@@]53[C@@H](O)[C@@H]1OC(=O)[C@@H](C)[C@@]14O (stereo partly drawn)
Data returned: 27.8^▴▴ g/d

Data request: Requested field: Average dairy food intake. Item: CC1C(=O)OC2C(O)C34C5CC(C(C)(C)C)C36C(OC(=O)C6O)OC4(C(=O)O5)C12O (stereo not drawn) [GB, ginkgolide B]
Data returned: 28.2^▴▴ g/d

====

# Method: Weekly body weight of SHR rats
# Assay type: in vivo, rat
# Condition Label: 120 mg/kg/d intragastric, week 6
Marks after values point to notes of the source that are not given here.
Measurement Type: Body weight

Data request: Requested field: Body weight. Item: CC1C(=O)OC2C(O)C34C5CC(C(C)(C)C)C36C(OC(=O)C6O)OC4(C(=O)O5)C12O (centres unmarked) [GB, ginkgolide B]
Data returned: 290.6^▴▴ g

Data request: Requested field: Body weight. Item: CC(=O)Oc1ccccc1C(=O)O[C@H]1C(=O)O[C@H]2O[C@]34C(=O)OC5C[C@@H](C(C)(C)C)C21[C@@]53[C@@H](O)[C@@H]1OC(=O)[C@@H](C)[C@@]14O (some centres unmarked)
Data returned: 291.2^▴▴ g

Data request: Requested field: Body weight. Item: Cc1nc(C)c(C(=O)O[C@H]2C(=O)O[C@H]3O[C@]45C(=O)OC6C[C@@H](C(C)(C)C)C32[C@@]64[C@@H](O)[C@@H]2OC(=O)[C@@H](C)[C@@]25O)nc1C (some centres unmarked)
Data returned: 291.3^▴▴ g

Data request: Requested field: Body weight. Item: C[C@@H]1C(=O)O[C@H]2[C@H](O)[C@@]34C5C[C@@H](C(C)(C)C)C36[C@@H](OC(=O)[C@@H]6OC(=O)[C@H](c3ccccc3Cl)N3CCc6sccc6C3)O[C@@]4(C(=O)O5)[C@@]12O (some centres unmarked)
Data returned: 290.3^▴▴ g

Data request: Requested field: Body weight. Item: Cc1nc(C)c(CO[C@H]2C(=O)O[C@H]3O[C@]45C(=O)OC6C[C@@H](C(C)(C)C)C32[C@@]64[C@@H](O)[C@@H]2OC(=O)[C@@H](C)[C@@]25O)nc1C (some centres unmarked)
Data returned: 290.5^▴▴ g

====

# System: spontaneously hypertensive rats (SHR)
# Method: Caudal artery systolic pressure of spontaneously hypertensive rats, single administration
# Assay type: in vivo, rat
# Condition Label: 120 mg/kg intragastric single administration, 120 min, x ± s, n = 8
Measurement Type: Systolic pressure (mmHg)
Just the number please, in mmHg, no unit attached.

Data request: Requested read-out Systolic pressure, target or system spontaneously hypertensive rats (SHR), entry CC(=O)Oc1ccccc1C(=O)O[C@H]1C(=O)O[C@H]2O[C@]34C(=O)OC5C[C@@H](C(C)(C)C)C21[C@@]53[C@@H](O)[C@@H]1OC(=O)[C@@H](C)[C@@]14O (stereo partly drawn) [BA]
Data returned: 158.25

Data request: Requested read-out Systolic pressure, target or system spontaneously hypertensive rats (SHR), entry Cc1nc(C)c(CO[C@H]2C(=O)O[C@H]3O[C@]45C(=O)OC6C[C@@H](C(C)(C)C)C32[C@@]64[C@@H](O)[C@@H]2OC(=O)[C@@H](C)[C@@]25O)nc1C (stereo partly drawn) [BM]
Data returned: 151.00

Data request: Requested read-out Systolic pressure, target or system spontaneously hypertensive rats (SHR), entry CC1C(=O)OC2C(O)C34C5CC(C(C)(C)C)C36C(OC(=O)C6O)OC4(C(=O)O5)C12O (stereo not drawn) [GB, ginkgolide B]
Data returned: 152.21

====

# Method: Weekly body weight of SHR rats
# Assay type: in vivo, rat
# Condition Label: 60 mg/kg/d intragastric, week 0
Measurement Type: Body weight (g)
Just the number please, in g, no unit attached.

Data request: Requested field: Body weight. Item: Cc1nc(C)c(C(=O)O[C@H]2C(=O)O[C@H]3O[C@]45C(=O)OC6C[C@@H](C(C)(C)C)C32[C@@]64[C@@H](O)[C@@H]2OC(=O)[C@@H](C)[C@@]25O)nc1C (stereo partly drawn)
Data returned: 231.0

Data request: Requested field: Body weight. Item: CCCCC(OC(C)=O)c1ccccc1C(=O)O[C@H]1C(=O)O[C@H]2O[C@]34C(=O)OC5C[C@@H](C(C)(C)C)C21[C@@]53[C@@H](O)[C@@H]1OC(=O)[C@@H](C)[C@@]14O (stereo partly drawn)
Data returned: 229.2

Data request: Requested field: Body weight. Item: CC(=O)Oc1ccccc1C(=O)O[C@H]1C(=O)O[C@H]2O[C@]34C(=O)OC5C[C@@H](C(C)(C)C)C21[C@@]53[C@@H](O)[C@@H]1OC(=O)[C@@H](C)[C@@]14O (stereo partly drawn)
Data returned: 228.5
